Values were extracted from patent US20260250381A1.

# measured.target: T1, human TREM2 (human) (UniProt Q9NZC2)
# T1 sequence (looked up): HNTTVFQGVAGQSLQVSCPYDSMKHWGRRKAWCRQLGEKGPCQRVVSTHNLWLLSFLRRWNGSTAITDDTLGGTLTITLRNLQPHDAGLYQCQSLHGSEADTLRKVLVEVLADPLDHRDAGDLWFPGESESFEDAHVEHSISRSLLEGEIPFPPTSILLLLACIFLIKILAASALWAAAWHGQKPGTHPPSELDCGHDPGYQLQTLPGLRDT
# method: 2nd screen, 100 nM Ab
measured.attribute: Binding Signal (fold over 6E7 parental antibody) (fold)
Number only, in fold; omit the unit.

INSERT INTO results (binder, unit_name, reported_measurement) VALUES
  ('6E7 variant V94 (antibody, V domains shown) VH: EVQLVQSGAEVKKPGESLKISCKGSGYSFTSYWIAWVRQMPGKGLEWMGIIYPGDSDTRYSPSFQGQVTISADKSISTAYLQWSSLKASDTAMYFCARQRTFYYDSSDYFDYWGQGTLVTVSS VL: DIQMTQSPSSVSASVGDRVTITCRASQGISSWLAWYQQKPGKAPKLLIYAAASLQNGVPSRFSGSGSGTDFTLTISSLQPEDFATYFCQQADSFPRTFGQGTKLEIK', 'fold', 0.87),
  ('6E7 variant V20 (antibody, V domains shown) VH: EVQLVQSGAEVKKPGESLKISCKGSGYSFTSYWIAWVRQMPGKGLEWMGRIYPGDSDTRYSPSFQGQVTISADKSISTAYLQWSSLKASDTAMYFCARQRTFYYDSSDYFDYWGQGTLVTVSS VL: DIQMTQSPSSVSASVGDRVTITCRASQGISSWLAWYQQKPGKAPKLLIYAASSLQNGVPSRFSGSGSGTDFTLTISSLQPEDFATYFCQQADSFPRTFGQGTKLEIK', 'fold', 0.52),
  ('6E7 variant V22 (antibody, V domains shown) VH: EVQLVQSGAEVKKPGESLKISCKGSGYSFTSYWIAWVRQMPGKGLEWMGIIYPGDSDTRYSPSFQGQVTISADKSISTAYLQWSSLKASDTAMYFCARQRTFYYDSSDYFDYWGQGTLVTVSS VL: DIQMTQSPSSVSASVGDRVTITCRASQGISSWLAWYQQKPGKAPKLLIYRASSLQNGVPSRFSGSGSGTDFTLTISSLQPEDFATYFCQQADSFPRTFGQGTKLEIK', 'fold', 0.71),
  ('6E7 variant V82 (antibody, V domains shown) VH: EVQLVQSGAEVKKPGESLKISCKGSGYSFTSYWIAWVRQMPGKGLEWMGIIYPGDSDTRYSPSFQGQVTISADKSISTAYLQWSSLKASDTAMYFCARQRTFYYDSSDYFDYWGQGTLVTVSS VL: DIQMTQSPSSVSASVGDRVTITCRASQGISSWLAWYQQKPGKAPKLLIYAGSSLQNGVPSRFSGSGSGTDFTLTISSLQPEDFATYFCQQADSFPRTFGQGTKLEIK', 'fold', 0.79);

Please find the next binder below.
Name the recorded Binding Signal (fold over 6E7 parental antibody) of the binder listed here: 6E7 variant V68 (antibody, V domains shown) VH: EVQLVQSGAEVKKPGESLKISCKGSGYSFTSYWIAWVRQMPGKGLEWMGIIYPGDSDTRYSPSFQGQVTISADKSISTAYLQWSSLKASDTAMYFCARQRTFRYDSSDYFDYWGQGTLVTVSS VL: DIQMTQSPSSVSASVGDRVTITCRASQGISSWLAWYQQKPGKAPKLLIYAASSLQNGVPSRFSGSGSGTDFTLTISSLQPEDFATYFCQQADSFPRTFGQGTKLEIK
0.43
